Collected Fold IC50 increase relative to wild-type values appear next to each entry.
# test.target: HIV-1 JR-CSF Env I323A (HIV-1 isolate JR-CSF) (UniProt P20871)
# assay.procedure: cell-based or functional assay
endpoint.name: Fold IC50 increase relative to wild-type (fold)

• PGT-135 (antibody, V domains shown) VH: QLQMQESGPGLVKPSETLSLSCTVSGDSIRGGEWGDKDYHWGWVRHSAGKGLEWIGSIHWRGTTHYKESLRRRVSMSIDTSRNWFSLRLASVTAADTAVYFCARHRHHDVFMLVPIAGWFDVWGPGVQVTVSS VL: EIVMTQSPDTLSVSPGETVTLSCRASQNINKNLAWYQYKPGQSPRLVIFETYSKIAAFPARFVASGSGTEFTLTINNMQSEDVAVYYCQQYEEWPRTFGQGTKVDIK = 1.5
• PGT-128 (antibody, V domains shown) VH: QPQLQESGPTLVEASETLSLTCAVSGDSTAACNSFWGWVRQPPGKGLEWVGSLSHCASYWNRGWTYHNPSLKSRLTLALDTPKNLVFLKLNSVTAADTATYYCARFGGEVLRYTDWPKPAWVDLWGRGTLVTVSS VL: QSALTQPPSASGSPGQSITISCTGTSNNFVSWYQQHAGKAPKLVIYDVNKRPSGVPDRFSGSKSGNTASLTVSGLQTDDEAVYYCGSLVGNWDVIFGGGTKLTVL = 3
• PGT-130 (antibody, V domains shown) VH: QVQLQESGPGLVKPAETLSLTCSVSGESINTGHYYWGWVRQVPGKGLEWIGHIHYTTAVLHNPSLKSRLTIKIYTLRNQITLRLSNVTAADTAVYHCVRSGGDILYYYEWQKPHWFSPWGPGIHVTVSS VL: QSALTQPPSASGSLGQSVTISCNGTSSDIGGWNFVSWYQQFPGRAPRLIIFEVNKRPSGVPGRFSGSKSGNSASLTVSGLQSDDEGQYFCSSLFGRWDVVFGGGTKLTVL = 0.8
